System: P12-Ichikawa
assay remarks: AUC of viability dose-response curve (% viability x log10 dose units); higher = less sensitive
test settings: HPLM + 10% dialyzed FBS; 48 h
// reported AUC of viability dose-response curve for each item listed
measurement name: AUC of viability dose-response curve

>>> df
                                   molecule  assay_result
0  Cc1nc(NC(=O)N2CCC[C@H]2C(N)=O)sc1-c1csc(C(C)(C)C)n1           331
1  COc1cc([C@@H]2c3cc4c(cc3[C@H](O)[C@H]3COC(=O)[C@@H]23)OCO4)cc(OC)c1OC           271
2  CC(C)(O)CCc1ccc(OCc2cc(-c3cccc(OC(F)F)c3)c3ncccc3c2)cc1           466
3  CO[C@@]12[C@H](COC(N)=O)C/3=C(N1C[C@@H]4N[C@H]24)/C(=O)/C(=C(N)\C3=O)C           472
4  O=C(CCCCCCNC(=O)c1cnc(N(c2ccccc2)c2ccccc2)nc1)NO           393
5              [O-]C(=O)C/1=N/C(=O)NC(=O)N1           441
6  CC[C@@H]1C(=O)N(C)c2cnc(Nc3ccc(C(=O)NC4CCC(N5CCN(CC6CC6)CC5)CC4)cc3OC)nc2N1C(C)C (some centres undefined)           201
7  C[C@]12Cc3cn[nH]c3C[C@@H]1CC[C@@H]1[C@@H]2CC[C@@]2(C)[C@H]1CC[C@]2(C)O           459
8  O=C(O)CCCCC(CCSCc1ccccc1)SCc1ccccc1 (centres undefined)           433

* * *

cell viability values for the compounds below.
System: P12-Ichikawa
assay remarks: cell viability relative to DMSO control; higher = less cytotoxic
test settings: RPMI 5 mM glucose + 10% dialyzed FBS; 48 h; 0.000781 µM
measurement name: cell viability (%)

>>> print(df.to_string())
                                   compound  unit_of_measurement  assay_result
0  Cc1nn(C)c(COc2ccc(N3CCN([S+](=O)([O-])N(C)C)CC3)cc2)c1-c1cccc2c(CCCOc3cccc4ccccc34)c(C(=O)O)n(CCN3CCOCC3)c12                    %          87.5
1  CCC[S+](=O)([O-])Nc1ccc(F)c(C(=O)c2c[nH]c3ncc(Cl)cc23)c1F                    %           118
2  Cc1c(-c2cccc3c(CCCOc4cccc5ccccc45)c(C(=O)O)n(Cc4cccnc4)c23)c(COc2ccc(N3CCN([S+](=O)([O-])N(C)C)CC3)cc2)nn1C                    %          91.7
3  CCN1\C=C(\C(O)=O)C(=O)C2=C1N=C(N3CCNCC3)C(=C2)F                    %          74.1
4  CC[S+](=O)([O-])Nc1ccc2c(c1)/C(=C(/Nc1ccc(CN3CCCCC3)cc1)c1ccccc1)C(=O)N2                    %           123
5       c1ccc2c(Cc3c[nH]c4ccccc34)c[nH]c2c1                    %            86
6  N[C@H]2CN(CC12CC1)c3c(F)cc4c(c3Cl)[N@@](C=C(C4=O)C(=O)O)C5C[C@H]5F (stereo partly drawn)                    %          80.7
7  CN1CCN(c2c(F)cc3c(=O)c(C(=O)O)cn(CCF)c3c2F)CC1                    %          95.9

Data credit: the supplement of paper PMC11451515
